Experiment: pKa value of the compound
Type: physicochemical
experimentalEndpoint: pKa

| smilesText | pKa |
| --- | --- |
| C/C(=N\N=C(/S)N/N=C(\S)Nc1cccc(I)c1)c1ccccn1 | 3.8 |
| C/C(=N\N=C(/S)N/N=C(\S)Nc1ccc(C(F)(F)F)cc1)c1ccccn1 | 3.87 |
| C/C(=N\N=C(/S)N/N=C(\S)Nc1cccc(C(F)(F)F)c1)c1ccccn1 | 3.89 |
| C/C(=N\N=C(/S)N/N=C(\S)Nc1cccc(Cl)c1Cl)c1ccccn1 | 3.86 |
| C/C(=N\N=C(/S)N/N=C(\S)Nc1ccccc1Cl)c1ccccn1 | 3.94 |
